Each entry below carries its recorded pA2 (Schild analysis, agonist NDP-MSH, cAMP).
# TARGET_OF_ASSAY: mouse melanocortin 4 receptor (mouse, UniProt P56450 1-332)
# Sequence (P56450 whole entry): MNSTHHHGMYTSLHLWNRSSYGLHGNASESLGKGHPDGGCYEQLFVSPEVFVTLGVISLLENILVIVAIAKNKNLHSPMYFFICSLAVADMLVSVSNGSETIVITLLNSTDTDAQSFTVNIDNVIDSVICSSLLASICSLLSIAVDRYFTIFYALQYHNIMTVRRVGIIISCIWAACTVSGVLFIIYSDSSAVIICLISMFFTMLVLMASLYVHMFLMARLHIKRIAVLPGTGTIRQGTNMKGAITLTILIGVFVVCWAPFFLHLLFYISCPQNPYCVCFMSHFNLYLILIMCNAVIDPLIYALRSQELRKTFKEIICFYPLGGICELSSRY
# PROTOCOL_TEXT: cell-based or functional assay
Square brackets hold non-standard residues; d marks the D form. Gly(N-(CH2)3-guanidino) = N=C(N)NCCCNCC(=O)O; Nphe = O=C(O)CNCc1ccccc1; Sar = CNCC(=O)O

Just so you know, measured pA2 (Schild analysis, agonist NDP-MSH, cAMP) for cyclo(PRFFNA[Nphe][dP]) [MDE7-26-5c] came out at < 5.5

Others:
Just so you know, measured pA2 (Schild analysis, agonist NDP-MSH, cAMP) for cyclo(PRFFN[Sar]F[dP]) (SMILES CN1CC(=O)N[C@@H](Cc2ccccc2)C(=O)N2CCC[C@@H]2C(=O)N2CCC[C@H]2C(=O)N[C@@H](CCCNC(=N)N)C(=O)N[C@@H](Cc2ccccc2)C(=O)N[C@@H](Cc2ccccc2)C(=O)N[C@@H](CC(N)=O)C1=O) [MDE7-26-4c] came out at < 5.5

Just so you know, measured pA2 (Schild analysis, agonist NDP-MSH, cAMP) for cyclo(PR[Nphe]FNAF[dP]) [MDE9-77c] came out at < 5.5

Just so you know, measured pA2 (Schild analysis, agonist NDP-MSH, cAMP) for cyclo(P[Gly(N-(CH2)3-guanidino)]FFNAF[dP]) (SMILES C[C@@H]1NC(=O)[C@H](CC(N)=O)NC(=O)[C@H](Cc2ccccc2)NC(=O)[C@H](Cc2ccccc2)NC(=O)CN(CCCNC(=N)N)C(=O)[C@@H]2CCCN2C(=O)[C@H]2CCCN2C(=O)[C@H](Cc2ccccc2)NC1=O) [MDE7-26-1c] came out at < 5.5

Provenance of the data: patent US20210179666A1
